tested.target: human ether-à-go-go-related gene (hERG) potassium channel (human, UniProt Q12809)
Sequence (Q12809 whole entry, looked up): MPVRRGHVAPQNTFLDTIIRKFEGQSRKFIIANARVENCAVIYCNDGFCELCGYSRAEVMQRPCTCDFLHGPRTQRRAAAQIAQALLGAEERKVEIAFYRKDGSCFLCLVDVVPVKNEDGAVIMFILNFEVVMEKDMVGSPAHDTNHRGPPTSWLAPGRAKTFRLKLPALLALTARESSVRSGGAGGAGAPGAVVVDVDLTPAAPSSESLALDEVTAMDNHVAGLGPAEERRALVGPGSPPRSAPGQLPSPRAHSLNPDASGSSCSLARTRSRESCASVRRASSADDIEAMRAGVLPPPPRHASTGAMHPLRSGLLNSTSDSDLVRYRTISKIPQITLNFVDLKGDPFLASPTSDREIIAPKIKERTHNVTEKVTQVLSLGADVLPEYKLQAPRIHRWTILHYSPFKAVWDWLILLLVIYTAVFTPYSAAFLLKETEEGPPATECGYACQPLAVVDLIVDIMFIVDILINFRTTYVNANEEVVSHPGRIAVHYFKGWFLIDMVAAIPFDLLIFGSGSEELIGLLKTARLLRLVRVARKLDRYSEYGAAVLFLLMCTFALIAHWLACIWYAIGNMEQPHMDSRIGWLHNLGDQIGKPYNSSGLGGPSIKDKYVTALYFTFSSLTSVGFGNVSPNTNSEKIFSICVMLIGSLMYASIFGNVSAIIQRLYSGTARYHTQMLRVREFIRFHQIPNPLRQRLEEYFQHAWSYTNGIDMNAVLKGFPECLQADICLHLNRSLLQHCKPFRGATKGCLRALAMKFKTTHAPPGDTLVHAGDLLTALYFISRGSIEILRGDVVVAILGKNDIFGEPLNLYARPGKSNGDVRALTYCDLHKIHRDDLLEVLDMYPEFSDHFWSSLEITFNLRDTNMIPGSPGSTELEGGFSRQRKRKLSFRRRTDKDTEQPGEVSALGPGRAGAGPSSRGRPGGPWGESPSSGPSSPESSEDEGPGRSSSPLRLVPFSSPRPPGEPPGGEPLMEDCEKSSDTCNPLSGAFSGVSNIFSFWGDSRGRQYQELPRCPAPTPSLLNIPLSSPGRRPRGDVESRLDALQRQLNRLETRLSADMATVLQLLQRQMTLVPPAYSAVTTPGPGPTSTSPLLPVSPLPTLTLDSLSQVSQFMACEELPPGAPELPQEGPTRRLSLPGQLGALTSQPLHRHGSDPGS
test.details: primary screen, population patch clamp on CHO cells stably expressing hERG; higher = less effect of the substance
Screen size: about 310,000 compounds; about 14,000 (4.5%) showed an effect of 50% or more. The effect is printed as a negative number. The full list was thinned out, with strong results kept by preference.
Let's look at some compounds and their measured hERG current change (%, negative = inhibition) at 10uM.

# compound, value.reported
data = [
    ("CCOC(=O)N1CCN(C(=O)c2ccc3nc4ccc(Cl)cc4c(=O)n3c2)CC1", "-45.9%"),
    ("CCOC(CNC(=O)c1cccn2c(=O)c3cc(Cl)ccc3nc12)OCC", "-7.16%"),
]

The reported hERG current change (%, negative = inhibition) at 10uM of the compound COc1ccc(-c2sc(Nc3ccccc3)n[n+]2-c2ccc(F)cc2)cc1Br.[Cl-] was 4.03%

hERG current change (%, negative = inhibition) at 10uM measured on O=C(c1ccc2nc3ccc(Cl)cc3c(=O)n2c1)N1CCOCC1 = -55.3%

The compound COc1ccc2ccccc2c1-c1sc(Nc2ccccc2)n[n+]1-c1ccc(F)cc1.[Cl-] showed hERG current change (%, negative = inhibition) at 10uM equal to -57.4%

The reported value for O=C(c1ccco1)N1CCN(Cc2cc(=O)oc3cc(O)ccc23)CC1 in terms of hERG current change (%, negative = inhibition) at 10uM is -69.3%

In plain terms, Oc1ccc2ccccc2c1-c1sc(Nc2ccccc2)n[n+]1-c1ccc(F)cc1.[Cl-] has a documented hERG current change (%, negative = inhibition) at 10uM of -0.475%

---

tested.target: human ether-à-go-go-related gene (hERG) potassium channel (human)
test.details: primary screen, population patch clamp on CHO cells stably expressing hERG; higher = less effect of the substance
In all, about 310,000 compounds went through this assay and about 14,000 (4.5%) showed an effect of 50% or more. The effect is printed as a negative number. The full list was thinned out, with strong results kept by preference.
measured.parameter: hERG current change (%, negative = inhibition) at 10uM
The number alone won't do; follow it with the unit.

# compound, tested.target, value.reported
measured = [
    ("CCc1nnc(NC(=O)CSc2ncc(-c3ccccc3)[nH]2)s1", "human ether-à-go-go-related gene (hERG) potassium channel (human)", "2.52%"),
    ("Cc1onc(-c2c(Cl)cccc2Cl)c1C(=O)Nc1nc(C(C)(C)C)cs1", "human ether-à-go-go-related gene (hERG) potassium channel (human)", "-26.4%"),
    ("COc1ccc(-c2cc(C(F)(F)F)nc(SCC(=O)N(C)Cc3cnn(C)c3C)n2)cc1OC", "human ether-à-go-go-related gene (hERG) potassium channel (human)", "-42.4%"),
    ("C=CCC1(Nc2ccccc2)CC(C)N(C)CC1C.O=C(O)C(=O)O (centres unmarked)", "human ether-à-go-go-related gene (hERG) potassium channel (human)", "-21.1%"),
]

Attention now turns to another entry.
The compound listed as Cc1ccc(S(=O)(=O)Nc2ccc3[nH]ccc3c2)cc1 has a reported hERG current change (%, negative = inhibition) at 10uM of -9.71%

---

tested.target: human ether-à-go-go-related gene (hERG) potassium channel (human);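 also: peak tail current of the secondary pulse compared with the same well before compound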
test.details: primary screen, population patch clamp on CHO cells stably expressing hERG; higher = less effect of the substance
In all, about 310,000 compounds went through this assay and about 14,000 (4.5%) showed an effect of 50% or more. Effects have a minus sign here. The sample holds strong results, similar compounds and a random draw of the others, so the mix is not that of the screen.
Entries annotated with measured hERG current change (%, negative = inhibition) at 10uM
Report the value in % with no unit label.

Looking up Cc1ccc2c(c1)N(Cc1ccc3c(c1)OCO3)C(=O)C(C)O2 (centres unmarked) , I see its hERG current change (%, negative = inhibition) at 10uM listed as -13.5

Form: molecule = CC1CCCCN1C(=O)COC(=O)c1ccc2c(c1)C(=O)N(Cc1ccco1)C2=O (centres unmarked) ; hERG current change (%, negative = inhibition) at 10uM = -34.9

COc1ccc(-n2c(=O)c3ccccc3n(CC(=O)NCC3CCCO3)c2=O)cc1 (centres unmarked) yielded hERG current change (%, negative = inhibition) at 10uM of 13.4

response.value for O=C(NCC(c1ccco1)N1CCc2ccccc21)c1ccccc1Br (centres unmarked) (field: hERG current change (%, negative = inhibition) at 10uM) = -29.3

Field hERG current change (%, negative = inhibition) at 10uM (entry Cc1ccc(/C=N/NC(=O)Cn2cnc3ccccc32)o1 ) reads 3.48

Entry O=C(NCCN1C(=O)S/C(=C\c2cccnc2)C1=O)c1cccc(OC(F)F)c1 , hERG current change (%, negative = inhibition) at 10uM reported as -48.7

For reference, reported hERG current change (%, negative = inhibition) at 10uM for Cc1ccc(OCC(=O)NNC(=S)NC(=O)C2CC2)c(C)c1 stands at 23.2

Entry O=C(OCC(=O)N1CCCCC1)c1ccc2c(c1)C(=O)N(Cc1ccco1)C2=O ; hERG current change (%, negative = inhibition) at 10uM = -28

Lab note: measured hERG current change (%, negative = inhibition) at 10uM of COc1cc(/C=N/n2cnnc2)ccc1OC(=O)c1ccncc1 was 8

Just so you know, measured hERG current change (%, negative = inhibition) at 10uM for CCC(C)NC(=O)CSc1nnc(-c2ccncc2)n1-c1ccc(OC)cc1 (centres unmarked) came out at -0.947

For this molecule ( CC1CC(C)CN(C(=O)COC(=O)c2ccc3c(c2)C(=O)N(Cc2ccco2)C3=O)C1 (centres unmarked) ), measured hERG current change (%, negative = inhibition) at 10uM is -68.7

CCCn1c(N)c(C(=O)CSc2nnc(Cc3cccs3)n2C2CC2)c(=O)n(C)c1=O yielded hERG current change (%, negative = inhibition) at 10uM of -0.534

---

tested.target: human ether-à-go-go-related gene (hERG) potassium channel (human);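 also: peak tail current of the secondary pulse compared with the same well before compound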
test.details: primary screen, population patch clamp on CHO cells stably expressing hERG; higher = less effect of the substance
In all, about 310,000 compounds went through this assay and about 14,000 (4.5%) showed an effect of 50% or more. Effects have a minus sign here. The entries come from a sample that favours strong results as a whole.
Classification field: yes = hERG current change (%, negative = inhibition) at 10uM at or over -20%; no = hERG current change (%, negative = inhibition) at 10uM under -20%.

Here's what some known entries look like.
# query.smiles, class.assignment
records = [
    ("Cc1ccc(/C=N/NC(=O)CN2CCN(Cc3ccccc3)CC2)o1", "yes"),
    ("c1ccc(-n2ncc3c(N4CCCC4)ncnc32)cc1", "yes"),
    ("CCCc1cc(-n2ccnc2)n2c(nc3ccccc32)c1C#N", "no"),
]

Challenge: Please indicate if the recorded hERG current change (%, negative = inhibition) at 10uM for CSc1ccc(/C=N/NC(=O)CN2CCN(Cc3ccc(Cl)cc3)CC2)cc1 meets or exceeds -20%.
Response given: no

Challenge: Quick check, hERG current change (%, negative = inhibition) at 10uM >= -20%? CC(C)c1ccc(Nc2nc(Cl)nc(Cl)n2)cc1
Response given: yes

---

tested.target: human ether-à-go-go-related gene (hERG) potassium channel (human);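 also: peak tail current of the secondary pulse compared with the same well before compound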
test.details: primary screen, population patch clamp on CHO cells stably expressing hERG; higher = less effect of the substance
Experimental: Briefly, Chinese hamster ovary (CHO) cells stably expressing the hERG channel were dislodged from tissue culture flasks and dispensed into PPC plates. […] During the recording, background leak currents were estimated by a 100 ms step to -80 mV from an initial holding potential of -70 mV and subtracted from the subsequent current measurement. The campaign was conducted in two phases using slight differences in recording protocol. […]
Among all 310,000 compounds or so, about 14,000 (4.5%) showed an effect of 50% or more. The effect is printed as a negative number. What follows is part of a selection rich in strong results, with near analogues and random picks from the rest.
measured.parameter: hERG current change (%, negative = inhibition) at 10uM (%)
Numeric answer only, unit % assumed.

# compound, value.reported
data = [
    ("O=C1N(Cc2ccccc2F)c2ccccc2C12OCCCO2", 10.9),
    ("O=C(O)c1cc(C2CC2)nn1-c1ccccc1", 17.5),
    ("Cn1c(=O)n(C)c2cc([N+](=O)[O-])c(N3CCN(C(=O)c4ccccc4Cl)CC3)cc21", -34.4),
]

Nc1ccc(-c2nnc(-c3ccc(-c4ccccc4)cc3)o2)cc1 yielded hERG current change (%, negative = inhibition) at 10uM of 4.31

hERG current change (%, negative = inhibition) at 10uM reported for this compound Cc1ccc(C(=O)N2CCN(c3cc4c(cc3[N+](=O)[O-])n(C)c(=O)n4C)CC2)cc1 : -66.6

---

tested.target: human ether-à-go-go-related gene (hERG) potassium channel (human, UniProt Q12809);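 also: peak tail current of the secondary pulse compared with the same well before compound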
test.details: primary screen, population patch clamp on CHO cells stably expressing hERG; higher = less effect of the substance
Out of some 310,000 compounds screened, about 14,000 (4.5%) showed an effect of 50% or more. The effect is printed as a negative number. The entries come from a sample that favours strong results as a whole.
Measured hERG current change (%, negative = inhibition) at 10uM values are reported for all entries that follow.
Give a bare numeral; the unit % is implied.

The cases that follow already have their hERG current change (%, negative = inhibition) at 10uM on record.
# molecule, value.reported
rows = [
    ("N#Cc1nc(Cc2ccccc2)oc1NCCCn1ccnc1", -31.5),
    ("Cc1ccc(-c2nc(C#N)c(NCCCn3ccnc3)o2)cc1", -21.9),
    ("Cc1ccc(S(=O)(=O)N(C)CC(=O)O/N=C(\\N)c2cccc([N+](=O)[O-])c2)cc1", -66.8),
    ("COc1ccc(/C=N/OCC(=O)N2CC3(C)CC2CC(C)(C)C3)cc1OC (centres unmarked)", -3.72),
    ("N#Cc1nc(COc2ccccc2)oc1NCCN1CCOCC1", -11.3),
    ("CC(=O)OCc1nc2ccccc2s1", 12),
    ("Cc1cccc(NC(=O)Cc2c(F)cccc2Cl)n1", 5.01),
    ("CCOC(=O)C1=C(N)Oc2c(oc(CO)cc2=O)C1c1c(F)cccc1Cl (centres unmarked)", 0.47),
]

Given item N/C(=N\OC(=O)CC1CCCCC1)c1cccc([N+](=O)[O-])c1 , the value recorded as its hERG current change (%, negative = inhibition) at 10uM is -6.21

Sure, the documented hERG current change (%, negative = inhibition) at 10uM for COc1ccccc1OCc1nc(C#N)c(NCCCn2ccnc2)o1 is 6.7

// hERG current change (%, negative = inhibition) at 10uM lookup, molecule = N#Cc1nc(COc2ccccc2)oc1NCCCn1ccnc1 , result: -50

The values you see were collected from paper PMC4336329.
